experiment: Cytotoxicity against human MFD-1 cells assessed as inhibition of cell growth measured after 72 hrs by MTT assay; type: functional, cell-based; details: MFD-1, 72 h
Measured Quantity: pIC50
Field pIC50 (float): negative decimal logarithm of the concentration in molar.

Which pIC50 value is on record for CN1CCN(C(=O)OC2=C(c3cccc4ncccc34)Oc3cc4ccccc4cc3-n3cccc32)CC1 ?
5.92

====

test system: KYSE-520 cell line; assay: Cytotoxicity against human KYSE520 cells assessed as inhibition of cell growth measured after 48 hrs by alamar blue viability assay; assay type: functional, cell-based; conditions: KYSE-520, 48 h
pIC50: recorded values
// scale note: pIC50 = -log10(conc_M); give the bare number

Compound Structure String | pIC50
O=C(OC1=C(c2cccc3ncccc23)Oc2cc3ccccc3cc2-n2cccc21)C1CCNCC1 | 5.77

// next entry
Consider the molecule CN1CCN(C(=O)OC2=C(c3cccc4ncccc34)Oc3cc4ccccc4cc3-n3cccc32)CC1 and give its measured pIC50.
5.44
